Entry source: the METLIN SMRT retention time set (Domingo-Almenara et al. 2019)

assay_text: gradient 5% acetonitrile 3 min, to 50% in 2 min, to 85% in 15 min, held 3 min, 100 µL/min
condition: column: Zorbax Extend-C18 2.1 x 50 mm; eluents: water / acetonitrile, 0.1% formic acid
measured_parameter: RP-LC retention time (s)

{"columns": ["compound", "measured_parameter", "output_unit", "endpoint_value"],
 "data": [
  ["COc1ccc(-c2noc(-c3nc(C)no3)n2)cc1", "RP-LC retention time", "s", 920],
  ["Cn1c(=O)cnc2ccc(N3CCCC3)nc21", "RP-LC retention time", "s", 884],
  ["COc1cccc(-c2noc(Cn3ccn(Cc4ccc(Cl)cc4)c(=O)c3=O)n2)c1", "RP-LC retention time", "s", 895],
  ["Cc1ccccc1NC(=O)Cn1cnc2c(c1=O)CCCC2", "RP-LC retention time", "s", 662],
  ["O=C(CSc1cc(N2CCN(c3ccccc3F)CC2)ncn1)NCCC1=CCCCC1", "RP-LC retention time", "s", 1190],
  ["Cc1oc(C2CCN(S(=O)(=O)c3cccc(F)c3)CC2)nc1C(=O)N1CCCC1", "RP-LC retention time", "s", 913]
]}

I. Cc1ccc(Cn2c(CN3CCC(C(=O)NC(C)C)CC3)cc3ccccc32)cc1
II. O=S(=O)(c1cc(-c2noc(C3CCCC3)n2)cs1)N1CCCC1
**Query** Returns: the label, I or II , whose recorded RP-LC retention time is the lower number. Indicate which entry you chose by stating its label.
**Result** I

A. O=C(Nc1cnn(-c2ncc(N3CCSCC3)cn2)c1)NC1CCCCC1
B. CCn1cc(-c2nc(CC(=O)Nc3ccc(Cl)cc3F)cs2)c2cccnc21
**Query** Which record would sort first by descending RP-LC retention time, A or B ? Please indicate the selected item by its label.
**Result** B
(B: 1100 s, A: 759 s)

1. COc1ccc(-c2ncc3c(=O)n(CC(=O)Nc4cc(OC)cc(OC)c4)cnc3n2)cc1
2. COc1ccc(OC)c2nc3c(C(=O)NCCN(C)C)cccc3nc12
**Query** Given the listed records, identify the one among 1 and 2 with higher RP-LC retention time. Bench note: the answer is the label of the chosen record.
**Result** 1

A. CCc1cc(C(=O)NCc2ccc(C)cc2)nc2ccnn12
B. O=C(c1ccc2c(c1)N(Cc1ccc(F)cc1)C(=O)CO2)N1CCN(c2ccccn2)CC1
**Query** Consider A and B . Which of these has its RP-LC retention time at a higher number? Kindly state the label of the option you pick.
**Result** A

###

assay_text: gradient 5% acetonitrile 3 min, to 50% in 2 min, to 85% in 15 min, held 3 min, 100 µL/min
condition: column: Zorbax Extend-C18 2.1 x 50 mm; eluents: water / acetonitrile, 0.1% formic acid
measured_parameter: RP-LC retention time (s)

// known answers, use as guide
{"columns": ["molecule", "measured_parameter", "endpoint_value"],
 "data": [
  ["Cc1cc(C(=O)N2CCCn3cc(-c4ccccc4F)nc32)nn1C", "RP-LC retention time", 656],
  ["O=C(Nc1ccc(-c2nc(-c3ccccc3)no2)cc1)c1ccc(Br)o1", "RP-LC retention time", 1180],
  ["CC(C)c1ccc(NC(=O)C2CCCN(c3ccc(=O)n(-c4cccc(Cl)c4)n3)C2)cc1 (centres undefined)", "RP-LC retention time", 1120],
  ["O=C(C1CC(=O)N(c2n[nH]c3cccc(F)c23)C1)N1CCN(c2ccc(Cl)cc2)CC1 (centres undefined)", "RP-LC retention time", 817]
]}

1. Cc1cc2c(cc1C)N(CC(=O)Nc1ccc(F)cc1F)C(=O)CC(c1cccs1)=N2
2. CCOc1ccc(CC(=O)N2C[C@@H]3C[C@H](NC(=O)c4cccnc4)[C@H]2C3)cc1
**Query** Between the entries labeled 1 and 2 , whose measured RP-LC retention time is lower? Write the label of whichever entry you select.
**Result** 2
(2: 645 s, 1: 1070 s)

###

assay_text: gradient 5% acetonitrile 3 min, to 50% in 2 min, to 85% in 15 min, held 3 min, 100 µL/min
condition: column: Zorbax Extend-C18 2.1 x 50 mm; eluents: water / acetonitrile, 0.1% formic acid
measured_parameter: RP-LC retention time (s)

These recorded examples may help you get a feel for the data.
{"columns": ["molecule", "output_unit", "RP-LC retention time"],
 "data": [
  ["CC(=O)N1CCc2cc(N3CC(C(=O)NCCC(C)C)CC3=O)ccc21 (stereo not drawn)", "s", 669],
  ["Cc1nnc(N2CCCC(C(=O)NCCCN3CCCC3=O)C2)c2nn(-c3ccccc3)c(C)c12 (stereo not drawn)", "s", 616],
  ["O=c1c2scc(-c3cccc(F)c3)c2ncn1Cc1cccc(Br)c1", "s", 1180],
  ["CCOC(=O)C1CCc2sc(NC(=O)Cc3noc4ccccc34)nc21 (stereo not drawn)", "s", 818]
]}

a. COc1cccc(CN2CCc3nc(N4CCN(c5ccccc5)CC4)ncc3C2)c1OC
b. Cc1cccc(-c2nc(-c3ccc4c(c3)oc(=O)n4C)no2)c1
**Query** Among a and b , which shows a numerically higher RP-LC retention time result? Return value: the label identifying the chosen record.
**Result** b

a. Cc1ccc(NS(=O)(=O)c2cc(-c3[nH]ncc3C(=O)N(C)C)oc2C)cc1
b. O=C(NCC1CCCCC1)c1ccc(-c2nc3cccnc3n2C2CCCCC2)cc1
**Query** In terms of reported RP-LC retention time, does a or b have the smaller number? Label of pick, please.
**Result** a

P. CCOC(=O)c1nc(Nc2ccc(F)c(Cl)c2)c2ccccc2n1
Q. Cc1[nH]nc2ccc(-c3cncc(OC[C@@H](N)Cc4ccccc4)c3)cc12
**Query** Hi there! Just curious which has the higher RP-LC retention time between P and Q . When you have decided, please share the label of that item.
**Result** P
(P: 971 s, Q: 624 s)

###

assay_text: gradient 5% acetonitrile 3 min, to 50% in 2 min, to 85% in 15 min, held 3 min, 100 µL/min
condition: column: Zorbax Extend-C18 2.1 x 50 mm; eluents: water / acetonitrile, 0.1% formic acid
measured_parameter: RP-LC retention time (s)

{"columns": ["compound", "measured_parameter", "endpoint_value"],
 "data": [
  ["CN1CCN(CCNC(=O)c2ccc3c(c2)N(C)C(=O)C2CCCCN32)CC1 (centres undefined)", "RP-LC retention time", 572],
  ["CC(C)Cc1csc(-c2csc(S(=O)(=O)Nc3cccc(Cl)c3)c2)n1", "RP-LC retention time", 1230],
  ["CCCN1C(=O)COc2ccc(-c3noc(-c4cccc(NC(=O)c5ccco5)c4)n3)cc21", "RP-LC retention time", 1100]
]}

I. CN(C)S(=O)(=O)c1ccc(-n2cnc(C(=O)N3CCN(Cc4ccccc4)CC3)c2)cc1
II. Cc1ccc(Oc2nccn3c(=O)n(CC(=O)Nc4ccc(C)c(Cl)c4)nc23)cc1
**Query** Input pair: I , II . Output: entry with lower RP-LC retention time. Your choice should be expressed through its label.
**Result** I
(I: 626 s, II: 1010 s)

###

assay_text: gradient 5% acetonitrile 3 min, to 50% in 2 min, to 85% in 15 min, held 3 min, 100 µL/min
condition: column: Zorbax Extend-C18 2.1 x 50 mm; eluents: water / acetonitrile, 0.1% formic acid
measured_parameter: RP-LC retention time (s)

Illustrative cases are given below, each with its answer.
{"columns": ["compound", "endpoint_value"],
 "data": [
  ["Cc1cccc(CN2C(=O)N(c3ccc(F)cc3)c3ncccc3S2(=O)=O)c1", 1090],
  ["Cc1cccc(NC(=O)Cn2nc3c(Oc4ccc(Cl)cc4)nccn3c2=O)c1", 930]
]}

A. O=C(CCC1CCN(c2cc(NC3CC3)ncn2)CC1)NCc1ccc(Cl)cc1
B. CC(C)(C)c1ccc(O)c(CN(Cc2cc(C(C)(C)C)ccc2O)C2CCCCC2)c1
**Query** Which has the smaller recorded RP-LC retention time, A or B ? Response format: the label of the selected entry.
**Result** A

I. O=C(c1ccoc1)N1CCCC(c2cc(-c3ccccc3)n[nH]2)C1 (centres undefined)
II. Cc1ccc(-c2nc3cnc(Br)cn3c2Nc2ccc3c(c2)OCCO3)cc1
**Query** // returns I or II , whichever has the lower RP-LC retention time Lab note: record the label of whichever item you select.
**Result** I
(I: 594 s, II: 956 s)

###

assay_text: gradient 5% acetonitrile 3 min, to 50% in 2 min, to 85% in 15 min, held 3 min, 100 µL/min
condition: column: Zorbax Extend-C18 2.1 x 50 mm; eluents: water / acetonitrile, 0.1% formic acid
measured_parameter: RP-LC retention time (s)

{"columns": ["compound", "measured_parameter", "output_unit", "endpoint_value"],
 "data": [
  ["C=Cc1ccc(CSc2ccc(-n3nc4c(c3C)CCC4)nn2)cc1", "RP-LC retention time", "s", 1070],
  ["CCOc1ncccc1CNC(=O)CC1CCCC1", "RP-LC retention time", "s", 812],
  ["CCC(C(=O)NC1(c2nc(-c3cccnc3)no2)CCCCC1)c1ccccc1 (centres undefined)", "RP-LC retention time", "s", 1010],
  ["O=C(CC1CCCCC1)NCC(=O)Nc1nc2ccccc2[nH]1", "RP-LC retention time", "s", 661],
  ["CCS(=O)(=O)N1CC(=O)N(c2ccc(C)cc2C)C(C)(C(=O)NCc2ccc(F)cc2)C1 (centres undefined)", "RP-LC retention time", "s", 857],
  ["COc1ccc(-c2nc3ncc4c(=O)n(CCc5c[nH]c6ccccc56)ccc4n3n2)cc1", "RP-LC retention time", "s", 940],
  ["CCCCNC(=O)C1c2cc(OC)c(OC)cc2C(=O)N(C)C1c1ccc(OC)cc1 (centres undefined)", "RP-LC retention time", "s", 764],
  ["CN1CCCN(C(=O)COc2ccc(Cl)cc2)c2ccccc21", "RP-LC retention time", "s", 960],
  ["CSc1ccc(-c2noc(Cn3nc(-c4ccccc4Cl)ccc3=O)n2)cc1", "RP-LC retention time", "s", 1030],
  ["COc1ccc(OCc2noc(CNC(=O)c3oc4cc(OC)ccc4c3C)n2)cc1", "RP-LC retention time", "s", 925]
]}

P. COc1cc(C(=O)N2CCN(c3cc(=O)n(C(C)C)c(=O)n3C(C)C)CC2)cc(OC)c1OC
Q. CCc1nc(-c2ccc(-c3noc(-c4ccncc4)n3)cc2)cs1
R. Cn1cnc(S(=O)(=O)N2CCN(c3ccccn3)CC2)c1
**Query** Hey, quick one: sort these by RP-LC retention time, largest value first please. Output spec: labels arranged per the requested ranking.
**Result** Q, P, R
(Q: 1230 s, P: 800 s, R: 536 s)
